Compiled pIC50 measurements on Proto-oncogene tyrosine-protein kinase receptor Ret (Homo sapiens) taken from the literature.
Sequence (P07949 whole entry): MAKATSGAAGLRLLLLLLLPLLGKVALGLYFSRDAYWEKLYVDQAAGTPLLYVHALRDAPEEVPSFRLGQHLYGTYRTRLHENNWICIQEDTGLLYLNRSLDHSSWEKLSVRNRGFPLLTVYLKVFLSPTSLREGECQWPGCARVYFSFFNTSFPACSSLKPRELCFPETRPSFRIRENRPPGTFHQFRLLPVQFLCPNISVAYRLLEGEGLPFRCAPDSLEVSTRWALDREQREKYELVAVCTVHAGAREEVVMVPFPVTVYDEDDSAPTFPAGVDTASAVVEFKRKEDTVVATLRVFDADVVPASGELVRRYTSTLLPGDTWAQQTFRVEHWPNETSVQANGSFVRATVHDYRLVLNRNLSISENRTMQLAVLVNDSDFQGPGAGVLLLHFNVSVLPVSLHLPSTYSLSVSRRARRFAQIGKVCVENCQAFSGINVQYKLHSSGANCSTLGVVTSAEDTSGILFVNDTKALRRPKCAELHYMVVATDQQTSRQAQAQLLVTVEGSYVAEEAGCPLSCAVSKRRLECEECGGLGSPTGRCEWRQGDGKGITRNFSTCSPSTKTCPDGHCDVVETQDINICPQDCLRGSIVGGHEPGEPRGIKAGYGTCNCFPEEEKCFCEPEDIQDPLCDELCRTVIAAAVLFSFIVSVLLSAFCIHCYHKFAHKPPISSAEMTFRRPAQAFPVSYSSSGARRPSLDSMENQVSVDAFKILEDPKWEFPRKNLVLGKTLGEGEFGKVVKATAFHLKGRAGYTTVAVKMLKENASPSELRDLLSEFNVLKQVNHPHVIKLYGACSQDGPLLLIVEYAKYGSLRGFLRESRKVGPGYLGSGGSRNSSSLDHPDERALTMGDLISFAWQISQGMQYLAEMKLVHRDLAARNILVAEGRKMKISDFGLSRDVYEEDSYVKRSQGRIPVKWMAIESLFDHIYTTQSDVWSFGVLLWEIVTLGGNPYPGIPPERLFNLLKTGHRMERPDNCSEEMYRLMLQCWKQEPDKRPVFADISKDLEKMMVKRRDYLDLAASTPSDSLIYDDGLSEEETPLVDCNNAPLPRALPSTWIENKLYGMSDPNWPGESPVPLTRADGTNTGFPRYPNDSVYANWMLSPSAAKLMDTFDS
pIC50: −log10 of the molar value.

Guide cases for pIC50, answers given:
COc1ccc(CN2CCC(n3cc(-c4cc(-c5cnn(C)c5)cn5ncc(C#N)c45)cn3)CC2)cn1 ... 7.51
CC(C)n1nc(-c2ccc(CC(=O)Nc3cc(-c4ccc(Cl)cc4Cl)no3)cn2)c(C(N)=O)c1N ... > 6.82
COc1ccc(CN2C3CC2CN(c2ccc(-c4cc(N5CC(C)(O)C5)cn5ncc(C#N)c45)cn2)C3)cn1 ... 8.34
COc1ccc(CN(C)CCN(C)c2ccc(-c3cc(-c4cnn(C)c4)cn4ncc(C#N)c34)cn2)cn1 ... 7.55
CCC(C)(C)c1cc(NC(=O)Cc2ccc(-c3nn(C(C)C)c(N)c3C(N)=O)nc2)on1 ... > 6.82

Query :: Reported pIC50 for Proto-oncogene tyrosine-protein kinase receptor Ret (Homo sapiens), given C#Cc1cccc(C(=O)NC2CCN(c3ccc(-c4cc(-c5cnn(C)c5)cn5ncc(C#N)c45)cn3)CC2)c1 ?
Result :: 8.57

Query :: Reported pIC50 for Proto-oncogene tyrosine-protein kinase receptor Ret (Homo sapiens), given CC(C)n1nc(-c2ccc(CC(=O)Nc3cc(-c4ccc(Cl)cc4F)no3)nc2)c(C(N)=O)c1N ?
Result :: > 6.82

Query :: Find pIC50 (Proto-oncogene tyrosine-protein kinase receptor Ret (Homo sapiens)) for the entry CC(C)n1nc(-c2ccc(CC(=O)Nc3cc(C45CC(F)(C4)C5)no3)cc2)c(C(N)=O)c1N
Result :: > 6.82
